# subject_of_test: T1, PTP1B-OX (Homo sapiens, UniProt P18031)
# T1 construct: made in house; host or cells: E. coli BL21 (pET19b)
# T1 sequence (P18031 3-277): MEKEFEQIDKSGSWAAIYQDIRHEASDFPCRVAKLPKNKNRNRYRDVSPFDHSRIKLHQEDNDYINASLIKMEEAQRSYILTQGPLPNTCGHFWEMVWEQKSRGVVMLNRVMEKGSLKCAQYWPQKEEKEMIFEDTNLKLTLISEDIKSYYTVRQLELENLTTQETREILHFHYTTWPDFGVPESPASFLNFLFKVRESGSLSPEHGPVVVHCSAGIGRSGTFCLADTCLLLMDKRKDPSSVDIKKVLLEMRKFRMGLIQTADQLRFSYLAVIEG
# protocol_details: In vitro binding assay, purified recombinant PTP1B (37 kDa) and purified scFv, Ni-NTA pull down
# assay_conditions: purified proteins, scFv in molar excess, 2 hours at 4° C.; FIG. 9
# Text: They established conditions in which PTP1B is reversibly oxidized by H2O2 in solution (FIG. 8). […] In the in vitro binding assay, purified PTP was reversibly oxidized with […] followed by a quick buffer exchange to remove H2O2 (FIG. 8). […] The complex was separated by SDS-PAGE and PTP1B was detected with anti-PTP1B antibody (FG6) and scFv was detected with anti-HA antibody [anti-HA (3F10)-HRP, Roche] by immunoblotting. […]
parameter: binding to PTP1B-OX in vitro

{"columns": ["molecule", "parameter", "reported_value"],
 "data": [
  ["scFv20: scFv, SEQ ID NO: 53 (protein) scFv: MKKTAIAIAVALAGFATVAQAALTQPSSVSANLGGIVEITCSGSSGSYGWYQQKSPGSAPVTVIYYNDKRPSNIPSRFSGSGSGSTNTLTIAGVRAEDEAVYYCGNEDSSGAAFGAGTTLTVLGQSSRSSAVTLDESGGGLQTPGGGLSLVCKASGFTFSDYDMFWVRQAPSKGLEFVAAITSSGTGTKYGAAVKGRATISKDNGQRTVRLQLNSLGAEDTGTYYCARSDADSTTWSAGEIDAWGHGTEVIVSSTSGQAGQHHHHHHGAYPYDVPDYAS", "binding to PTP1B-OX in vitro", "no significant binding"],
  ["scFv21: scFv, SEQ ID NO: 54 (protein) scFv: MKKTAIAIAVALAGFATVAQAALTQPSSVSANPGGTVKITCSGSSGSYYGWYQQKSPGSAPVTVIYDNDKRPSDVPSRFSGSKSGPTATLTITGVQAEDEAVYFCGSRDNSYVGIFGAGTTLTVLGQSSRSSAVTLDESGGGLQTPGGALSLVCKASGFTFSSYDMFWVRQAPGKGLEFVAQINSAGSYTNYGSAVKGRATISRDDGQSTVRLQLNNLRAEDTGIYFCAKSASGYYYSGSDAGDIDAWGHGTEVIVSSTSGQAGQHHHHHHGAYPYDVPDYAS", "binding to PTP1B-OX in vitro", "no significant binding"]
]}

// data source = patent US9074002B2
